- TARGET OR TEST SYSTEM: T1, Source 1 VEGF-D, mature dimeric recombinant human VEGF-D (CSIRO) (human, UniProt O43915 89-205)
- T1 construct: Whole entry named; also called Source 1 VEGF-D dimer; VEGF-D dimer
- T1 sequence: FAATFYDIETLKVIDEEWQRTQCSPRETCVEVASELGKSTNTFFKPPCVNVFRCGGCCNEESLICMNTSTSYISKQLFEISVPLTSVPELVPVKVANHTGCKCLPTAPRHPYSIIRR
- TEST PROTOCOL: SPR Protocol B, KD against that of Ig-1A
- Description: Protocol B: In the second assay format, Protocol B, the orientation of the IgGs and the VEGF-D antigen was reversed relative to Protocol A. The Source 1 VEGF-D dimer was immobilized directly on the chip surface by amine coupling and the murine anti-VEGF-D monoclonal antibody, Ig-1A or IgG variants flowed over this surface as analytes at concentrations of 4 nM, 1.33 nM, and 0.44 nM. […]
VALUE KIND: Fold-improvement with respect to Ig-1A (fold)
Lab book: enter the figure in fold, no units written.

- BINDER: "humanized IgG antibody derived from clone DI26 (antibody, V domains shown, IgG) VH: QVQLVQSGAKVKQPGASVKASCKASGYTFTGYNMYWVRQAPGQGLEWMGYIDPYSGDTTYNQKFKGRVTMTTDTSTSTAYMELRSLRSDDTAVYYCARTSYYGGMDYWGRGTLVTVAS VL: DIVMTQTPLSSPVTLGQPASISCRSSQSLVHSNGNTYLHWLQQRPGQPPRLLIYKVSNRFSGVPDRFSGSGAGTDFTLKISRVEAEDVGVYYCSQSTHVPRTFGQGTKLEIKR"
  Fold-improvement with respect to Ig-1A [fold]: 2

The measured Fold-improvement with respect to Ig-1A associated with humanized IgG antibody derived from clone HW78 (antibody, V domains shown, IgG) VH: QVQLVQSGAEVKQPGASVKVSCKARGYTFTGYNMYWVRQAPGQGLEWMGYIDPYNGDTTYNQKFKGRVTMTTDTSTGTAYMKLRSLRSDDTAVYYCARTSYYGGMDYWGRGTLVTVAS VL: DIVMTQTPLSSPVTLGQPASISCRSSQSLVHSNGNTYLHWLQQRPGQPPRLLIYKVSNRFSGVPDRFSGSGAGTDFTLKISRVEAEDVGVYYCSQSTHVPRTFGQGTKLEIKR reads 5.5
